# assayed system: SRPK1 (SRPK1ΔNS3) (Homo sapiens)
# assay remarks: Isothermal titration calorimetry
# Type: binding
# applied conditions: SD
No end group written: not given here.
measurement label: Kd
Answer with the figure and its unit, nothing else.

## Input Tell me measured Kd for RERARTR [7-mer, R-E-R-A-R-T-R] please.
## Output 112 µM
